Target: elastase from human neutrophil (Homo sapiens)
Construct: using elastase from human neutrophil; from tissue; host or cells: human neutrophil
Sequence (P08246 30-247 limits assumed): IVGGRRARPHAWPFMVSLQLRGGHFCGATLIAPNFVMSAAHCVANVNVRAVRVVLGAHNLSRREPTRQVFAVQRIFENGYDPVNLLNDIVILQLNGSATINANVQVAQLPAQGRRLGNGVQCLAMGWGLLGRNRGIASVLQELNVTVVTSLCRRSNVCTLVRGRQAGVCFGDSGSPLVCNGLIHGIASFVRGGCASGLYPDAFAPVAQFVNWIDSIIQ
Assay: Inhibitory effect on elastase (spectrophotometric method, substrate Suc-Ala-Pro-Ala-pNA)
Assay type: biochemical
Conditions: Y represents an oxygen atom; pH 8.0, 37° C., 30 minutes; read-out: Inhibitory Effect on Elastase, IC50
endpoint: pIC50
Numbers only, as −log10 of the molar value.

Previously resolved entries follow.
COc1cc(OC(=O)c2ccc(NC(=N)N)cc2)cc(OS(C)(=O)=O)c1 : 5.33
COC(=O)c1ccc(OC(=O)c2ccc(NC(=N)N)cc2)c(Cl)c1 : 4.01
COc1cc(COc2ccc(S(=O)(=O)N3CCOCC3)cc2)cc(OC(=O)c2ccc(NC(=N)N)cc2)c1 : 5.15
CC(=O)c1ccc(Cl)cc1OC(=O)c1ccc(NC(=N)N)cc1 : 5.74
N=C(N)Nc1ccc(C(=O)Oc2cc(Cl)cc(COc3ccc(S(=O)(=O)N4CCOCC4)cc3)c2)cc1 : 5.85
CNC(=O)c1cccc(OC(=O)c2ccc(NC(=N)N)cc2)c1Cl : 5.22

Value sought for every listed compound: pIC50.
1. CC(C)OC(=O)c1cccc(OC(=O)c2ccc(NC(=N)N)cc2)c1Cl
2. COc1ccc(C(C)=O)c(OC(=O)c2ccc(NC(=N)N)cc2)c1
3. N=C(N)Nc1ccc(C(=O)Oc2cc(Cl)cc(C(=O)Nc3ccc(S(N)(=O)=O)cc3)c2)cc1
4. CCN(CC)S(=O)(=O)c1ccccc1OC(=O)c1ccc(NC(=N)N)cc1
5. N=C(N)Nc1ccc(C(=O)Oc2c(F)c(F)c(F)c(F)c2F)cc1
6. N=C(N)Nc1ccc(C(=O)Oc2cc(Cl)ccc2C(=O)CC2CCCC2)cc1

Result:
5.70
4.40
5.89
3.74
5.24
5.72

Every entry's value here was drawn from patent US5247084A.
